# Tested on: Streptococcus pneumoniae
# protocol.text: Antibacterial activity against Streptococcus pneumoniae ATCC 49619 assessed as reduction in bacterial growth after 18 hrs by CLSI based broth microdilution assay
# Format: functional
Where a SMILES comes first, the peptide text is derived from it. Bridges are numbered along the chain shown (N, C = ends). [ ]: non-standard residue; d: D form. The star is where a group is joined. X1 = CC[C@H](C)CCCCC(=O)*; Dab = NCC[C@H](N)C(=O)O
Measured MIC of individual entries
reported.metric: MIC (µM)

molecule=N=C(N)NCCC[C@H]1C(=O)N(Cc2ccc(-c3ccccc3)cc2)[C@@H](CCCNC(=N)N)C(=O)N1Cc1ccc(-c2ccccc2)cc1 unit_of_measure=µM inequality_operator== value_reported=8
molecule=CC1(C)S[C@@H]2[C@H](NC(=O)[C@H](N)c3ccc(O)cc3)C(=O)N2[C@H]1C(=O)O unit_of_measure=µM inequality_operator== value_reported=0.5
molecule="CC[C@H](C)CCCCC(=O)N[C@@H](CCN)C(=O)N[C@H](C(=O)N[C@@H](CCN)C(=O)N[C@H]1CCNC(=O)[C@H]([C@@H](C)O)NC(=O)[C@H](CCN)NC(=O)[C@H](CCN)NC(=O)[C@H](CC(C)C)NC(=O)[C@@H](Cc2ccccc2)NC(=O)[C@H](CCN)NC1=O)[C@@H](C)O (X1-[Dab]T[Dab][Dab][Dab][dF]L[Dab][Dab]T; lactam 4-C)" unit_of_measure=µM inequality_operator== value_reported=8
molecule=N=C(N)NCCC[C@@H]1C(=O)N(Cc2ccc(-c3ccccc3)cc2)[C@H](CCCNC(=N)N)C(=O)N1Cc1ccc(-c2ccccc2)cc1 unit_of_measure=µM inequality_operator== value_reported=8
molecule=N=C(N)NCCC[C@@H]1C(=O)N(Cc2ccc(-c3ccccc3)cc2)[C@@H](CCCNC(=N)N)C(=O)N1Cc1ccc(-c2ccccc2)cc1 unit_of_measure=µM inequality_operator== value_reported=16
molecule=N=C(N)NCCC[C@H]1C(=O)N(Cc2ccccc2)[C@@H](CCCNC(=N)N)C(=O)N1Cc1ccccc1 unit_of_measure=µM inequality_operator=> value_reported=64
molecule=NCCC[C@H]1C(=O)N(Cc2ccc(-c3ccccc3)cc2)[C@@H](CCCN)C(=O)N1Cc1ccc(-c2ccccc2)cc1 unit_of_measure=µM inequality_operator== value_reported=8

----------
# Tested on: Pseudomonas aeruginosa
# protocol.text: Antibacterial activity against Pseudomonas aeruginosa SVB-B9 assessed as reduction in bacterial growth after 18 hrs by CLSI based broth microdilution assay
# Type: functional
reported.metric: MIC (µM)

compound=N=C(N)NCCC[C@@H]1C(=O)N(Cc2ccc(-c3ccccc3)cc2)[C@H](CCCNC(=N)N)C(=O)N1Cc1ccc(-c2ccccc2)cc1 reported_metric=MIC unit_of_measure=µM inequality_operator== value_reported=8
compound="CC1(C)S[C@@H]2[C@H](NC(=O)[C@H](N)c3ccc(O)cc3)C(=O)N2[C@H]1C(=O)O [AMOXICILLIN]" reported_metric=MIC unit_of_measure=µM inequality_operator=> value_reported=64
compound=N=C(N)NCCC[C@H]1C(=O)N(Cc2ccc(-c3ccccc3)cc2)[C@@H](CCCNC(=N)N)C(=O)N1Cc1ccc(-c2ccccc2)cc1 reported_metric=MIC unit_of_measure=µM inequality_operator== value_reported=8
compound=N=C(N)NCCC[C@H]1C(=O)N(Cc2ccccc2)[C@@H](CCCNC(=N)N)C(=O)N1Cc1ccccc1 reported_metric=MIC unit_of_measure=µM inequality_operator=> value_reported=64
compound=N=C(N)NCCC[C@@H]1C(=O)N(Cc2ccc(-c3ccccc3)cc2)[C@@H](CCCNC(=N)N)C(=O)N1Cc1ccc(-c2ccccc2)cc1 reported_metric=MIC unit_of_measure=µM inequality_operator== value_reported=64
